Data origin, for the record: patent EP4745134A1

# assaySystem: PRMT5-MTA (Homo sapiens)
# Sequence (O14744 whole entry): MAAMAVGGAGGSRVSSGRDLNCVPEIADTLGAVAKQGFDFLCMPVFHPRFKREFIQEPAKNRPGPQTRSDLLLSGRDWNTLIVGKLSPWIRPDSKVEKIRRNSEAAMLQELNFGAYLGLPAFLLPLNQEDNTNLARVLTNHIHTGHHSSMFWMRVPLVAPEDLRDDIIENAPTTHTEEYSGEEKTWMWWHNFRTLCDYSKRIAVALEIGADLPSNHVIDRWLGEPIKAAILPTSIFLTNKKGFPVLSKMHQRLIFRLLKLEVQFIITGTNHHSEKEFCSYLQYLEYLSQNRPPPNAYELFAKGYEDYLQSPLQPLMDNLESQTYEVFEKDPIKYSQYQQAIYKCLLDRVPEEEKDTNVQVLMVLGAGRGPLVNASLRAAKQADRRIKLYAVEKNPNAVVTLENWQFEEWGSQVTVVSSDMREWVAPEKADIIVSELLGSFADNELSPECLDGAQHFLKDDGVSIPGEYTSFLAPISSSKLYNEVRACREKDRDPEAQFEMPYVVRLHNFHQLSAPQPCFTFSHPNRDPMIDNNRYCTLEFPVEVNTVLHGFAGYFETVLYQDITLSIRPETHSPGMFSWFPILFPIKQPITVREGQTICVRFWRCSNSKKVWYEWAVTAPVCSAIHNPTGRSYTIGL
# Sequence (Q9BQA1 whole entry partner): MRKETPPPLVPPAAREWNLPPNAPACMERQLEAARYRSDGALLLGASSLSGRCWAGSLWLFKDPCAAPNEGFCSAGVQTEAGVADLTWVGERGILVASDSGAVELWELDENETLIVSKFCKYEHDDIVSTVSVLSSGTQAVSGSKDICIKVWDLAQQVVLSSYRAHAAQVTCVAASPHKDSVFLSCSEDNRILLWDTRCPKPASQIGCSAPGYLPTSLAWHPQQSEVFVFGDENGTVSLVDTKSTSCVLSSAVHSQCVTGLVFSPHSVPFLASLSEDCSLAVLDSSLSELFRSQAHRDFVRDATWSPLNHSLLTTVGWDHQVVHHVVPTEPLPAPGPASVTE
# assayProcedure: Enzymatic inhibitory activity against PRMT5-MTA (AlphaScreen)
# Format: biochemical
# assayConditions: read-out: IC50
quantityName: IC50 (nM)
Numbers only, in nM.

Completed entries (count: 3):
Form entry - test system: PRMT5-MTA (Homo sapiens); read-out: IC50; compound: CCOC1CN(C(=O)c2cc3c(cc2C)nc(N)c2cnn(C)c23)N(c2ncccc2F)C1 (stereo not shown) [Example 453]
5.2

Form entry - test system: PRMT5-MTA (Homo sapiens); read-out: IC50; compound: Cc1cc2cc(C(=O)N(Cc3ccc(-c4cncc(C(F)(F)F)c4)cn3)N(C)c3ncccn3)ccc2nc1N [Example 175]
3.3

Form entry - test system: PRMT5-MTA (Homo sapiens); read-out: IC50; compound: [2H]C([2H])([2H])c1cc2cc(C(=O)N(Cc3ccc(-c4scnc4C)cn3)N(c3ncccn3)C3CC3)ccc2nc1N [Example 316]
6.8

Hi team, please reply with IC50 for each item in this list.
1. C#Cc1cnc(N2CC(C)CN2C(=O)c2cc3c(cc2C)nc(N)c2cnn(C)c23)c(F)c1 (stereo not shown) [Example 494]
2. Cc1cc2nc(N)c3cnn(C)c3c2cc1C(=O)N1CC(C)CN1c1cccc(F)n1 (stereo not shown) [Example 360]
3. Cc1cc2cc(C(=O)N(Cc3ccc(-c4cnc(C(F)(F)F)s4)cn3)N(C)c3ncccn3)ccc2nc1N [Example 244]
4. CC1CN(C(=O)c2cc3c(cc2F)nc(N)c2cnn(C)c23)N(c2ncccc2F)C1 (stereo not shown) [Example 393]

1. 4.6
2. 5.2
3. 4.2
4. 3.4
